Known IC50 of a selection of molecules
# targetOfAssay: LOX (Glycine max)
# Sequence (P08170 1-839): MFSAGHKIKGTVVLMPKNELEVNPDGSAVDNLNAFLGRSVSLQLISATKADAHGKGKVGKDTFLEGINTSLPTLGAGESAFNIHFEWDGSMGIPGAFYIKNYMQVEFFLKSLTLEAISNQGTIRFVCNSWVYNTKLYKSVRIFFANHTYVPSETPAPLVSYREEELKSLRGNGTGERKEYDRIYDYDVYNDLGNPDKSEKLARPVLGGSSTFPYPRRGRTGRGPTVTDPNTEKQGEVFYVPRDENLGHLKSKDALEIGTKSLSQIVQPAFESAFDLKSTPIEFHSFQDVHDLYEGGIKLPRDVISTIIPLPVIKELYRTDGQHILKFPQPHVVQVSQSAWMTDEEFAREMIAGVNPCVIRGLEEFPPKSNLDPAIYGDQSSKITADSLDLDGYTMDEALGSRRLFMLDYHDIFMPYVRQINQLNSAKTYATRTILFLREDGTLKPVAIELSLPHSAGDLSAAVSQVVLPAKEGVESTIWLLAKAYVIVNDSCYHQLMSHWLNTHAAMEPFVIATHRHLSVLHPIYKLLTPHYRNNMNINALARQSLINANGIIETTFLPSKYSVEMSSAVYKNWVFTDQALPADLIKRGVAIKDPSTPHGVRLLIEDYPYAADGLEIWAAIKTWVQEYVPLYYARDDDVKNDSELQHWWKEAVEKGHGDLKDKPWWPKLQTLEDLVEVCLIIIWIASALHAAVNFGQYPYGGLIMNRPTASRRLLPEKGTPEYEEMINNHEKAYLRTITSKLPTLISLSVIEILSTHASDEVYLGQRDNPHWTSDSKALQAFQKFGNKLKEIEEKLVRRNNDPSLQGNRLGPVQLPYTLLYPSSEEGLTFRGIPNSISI
testReadout: IC50 (µM)

molecule: Cc1ccc(S(=O)(=O)N2CCC(c3nnc(SCC(=O)Nc4c(C)cccc4[N+](=O)[O-])n3C)CC2)cc1 [Compound 12o]
testReadout: IC50
number: 93.8
//
molecule: CCc1ccccc1NC(=O)CSc1nnc(C2CCN(S(=O)(=O)c3ccc(C)cc3)CC2)n1C [Compound 12f]
testReadout: IC50
number: 96.3
//
molecule: Cc1ccc(S(=O)(=O)N2CCC(c3nnc(SCC(=O)Nc4cccc(C)c4)n3C)CC2)cc1 [Compound 12d]
testReadout: IC50
number: 32.6
//
molecule: CCOc1ccc(NC(=O)CSc2nnc(C3CCN(S(=O)(=O)c4ccc(C)cc4)CC3)n2C)cc1 [Compound 12h]
testReadout: IC50
number: 92.5

====

# targetOfAssay: AChE (Homo sapiens, UniProt P22303)
# Sequence (P22303 32-614): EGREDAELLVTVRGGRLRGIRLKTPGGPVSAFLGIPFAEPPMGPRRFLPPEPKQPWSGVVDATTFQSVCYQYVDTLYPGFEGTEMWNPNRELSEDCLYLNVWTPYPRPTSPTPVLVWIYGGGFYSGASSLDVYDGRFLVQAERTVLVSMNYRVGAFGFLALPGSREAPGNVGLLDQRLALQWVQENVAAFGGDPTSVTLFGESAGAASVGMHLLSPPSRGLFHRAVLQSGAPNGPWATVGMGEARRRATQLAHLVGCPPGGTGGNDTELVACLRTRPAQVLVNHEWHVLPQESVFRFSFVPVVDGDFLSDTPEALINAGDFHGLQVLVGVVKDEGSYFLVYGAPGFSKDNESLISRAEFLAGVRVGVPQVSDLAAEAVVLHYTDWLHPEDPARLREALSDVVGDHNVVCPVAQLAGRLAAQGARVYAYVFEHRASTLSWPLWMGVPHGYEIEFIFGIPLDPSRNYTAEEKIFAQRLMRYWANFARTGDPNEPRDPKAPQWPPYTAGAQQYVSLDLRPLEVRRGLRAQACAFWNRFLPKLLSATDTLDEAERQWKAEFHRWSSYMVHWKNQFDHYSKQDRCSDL
# testContext: 0.5 mM; mean ± SEM, triplicate
testReadout: AChE inhibition, inhibition (%) at 0.5 mM

compound: Cc1ccc(S(=O)(=O)N2CCC(c3nnc(SCC(=O)Nc4c(C)cccc4C)n3C)CC2)cc1 [Compound 12l]
result: 62.25 ± 0.86%
--
compound: Cc1ccc(NC(=O)CSc2nnc(C3CCN(S(=O)(=O)c4ccc(C)cc4)CC3)n2C)cc1 [Compound 12e]
result: 87.43 ± 0.77%
--
compound: Cc1ccc(S(=O)(=O)N2CCC(c3nnc(SCC(=O)Nc4c(C)cccc4[N+](=O)[O-])n3C)CC2)cc1 [Compound 12o]
result: 81.53 ± 0.96%
--
compound: Cc1ccc(S(=O)(=O)N2CCC(c3nnc(SCC(=O)Nc4cccc(C)c4)n3C)CC2)cc1 [Compound 12d]
result: 98.78 ± 0.78%
--
compound: Cc1ccc(S(=O)(=O)N2CCC(c3nnc(SCC(=O)Nc4ccc(C)cc4C)n3C)CC2)cc1 [Compound 12j]
result: 88.36 ± 0.79%
--
compound: Cc1ccc(S(=O)(=O)N2CCC(c3nnc(SCC(=O)Nc4cc(C)ccc4C)n3C)CC2)cc1 [Compound 12k]
result: 65.27 ± 0.74%
--
compound: CCc1ccccc1NC(=O)CSc1nnc(C2CCN(S(=O)(=O)c3ccc(C)cc3)CC2)n1C [Compound 12f]
result: 39.62 ± 0.55%
--
compound: Cc1ccc(S(=O)(=O)N2CCC(c3nnc(SCC(=O)Nc4ccccc4)n3C)CC2)cc1 [Compound 12b]
result: 89.15 ± 0.68%
--
compound: Cc1ccc(S(=O)(=O)N2CCC(c3nnc(SCC(=O)NC4CCCCC4)n3C)CC2)cc1 [Compound 12a]
result: 52.37 ± 0.78%
--
compound: Cc1ccc(S(=O)(=O)N2CCC(c3nnc(SCC(=O)Nc4cccc(C)c4C)n3C)CC2)cc1 [Compound 12i]
result: 82.51 ± 0.85%
--
compound: CCc1cccc(C)c1NC(=O)CSc1nnc(C2CCN(S(=O)(=O)c3ccc(C)cc3)CC2)n1C [Compound 12n]
result: 61.53 ± 0.65%

====

// α-glucosidase (Saccharomyces cerevisiae) log10 of IC50 records
testReadout: log10 of IC50 (log10 of the value in µM)

compound: Cc1ccc(S(=O)(=O)N2CCC(c3nnc(SCC(=O)Nc4cccc(C)c4)n3C)CC2)cc1 [Compound 12d]
targetOfAssay: α-glucosidase (Saccharomyces cerevisiae)
Sequence (P53341 whole entry): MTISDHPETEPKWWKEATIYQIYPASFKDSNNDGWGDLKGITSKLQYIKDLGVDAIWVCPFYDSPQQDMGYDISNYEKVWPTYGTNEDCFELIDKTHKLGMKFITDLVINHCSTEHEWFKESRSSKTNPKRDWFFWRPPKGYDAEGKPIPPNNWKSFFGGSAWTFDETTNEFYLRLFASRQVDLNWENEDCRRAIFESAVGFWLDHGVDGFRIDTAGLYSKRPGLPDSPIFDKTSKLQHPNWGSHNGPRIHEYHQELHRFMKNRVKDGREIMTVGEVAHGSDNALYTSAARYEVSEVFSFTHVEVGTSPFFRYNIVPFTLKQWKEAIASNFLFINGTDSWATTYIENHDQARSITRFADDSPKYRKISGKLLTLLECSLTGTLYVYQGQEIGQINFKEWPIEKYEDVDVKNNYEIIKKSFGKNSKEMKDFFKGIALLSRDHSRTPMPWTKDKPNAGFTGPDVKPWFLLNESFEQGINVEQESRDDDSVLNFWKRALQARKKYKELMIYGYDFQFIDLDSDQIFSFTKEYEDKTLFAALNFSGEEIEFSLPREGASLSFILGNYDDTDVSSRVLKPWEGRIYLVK
log10 of IC50: 1.56
//
compound: Cc1ccc(S(=O)(=O)N2CCC(c3nnc(SCC(=O)Nc4c(C)cccc4[N+](=O)[O-])n3C)CC2)cc1 [Compound 12o]
targetOfAssay: α-glucosidase (Saccharomyces cerevisiae)
log10 of IC50: 2.46
//
compound: Cc1ccc(NC(=O)CSc2nnc(C3CCN(S(=O)(=O)c4ccc(C)cc4)CC3)n2C)cc1 [Compound 12e]
targetOfAssay: α-glucosidase (Saccharomyces cerevisiae)
log10 of IC50: 2.50
//
compound: Cc1ccc(S(=O)(=O)N2CCC(c3nnc(SCC(=O)Nc4ccccc4)n3C)CC2)cc1 [Compound 12b]
targetOfAssay: α-glucosidase (Saccharomyces cerevisiae)
log10 of IC50: 2.42
//
compound: COc1ccccc1NC(=O)CSc1nnc(C2CCN(S(=O)(=O)c3ccc(C)cc3)CC2)n1C [Compound 12g]
targetOfAssay: α-glucosidase (Saccharomyces cerevisiae)
log10 of IC50: 2.43
//
compound: CCOc1ccc(NC(=O)CSc2nnc(C3CCN(S(=O)(=O)c4ccc(C)cc4)CC3)n2C)cc1 [Compound 12h]
targetOfAssay: α-glucosidase (Saccharomyces cerevisiae)
log10 of IC50: 2.46
//
compound: Cc1ccc(S(=O)(=O)N2CCC(c3nnc(SCC(=O)Nc4c(C)cccc4C)n3C)CC2)cc1 [Compound 12l]
targetOfAssay: α-glucosidase (Saccharomyces cerevisiae)
log10 of IC50: 2.67
//
compound: CCc1ccccc1NC(=O)CSc1nnc(C2CCN(S(=O)(=O)c3ccc(C)cc3)CC2)n1C [Compound 12f]
targetOfAssay: α-glucosidase (Saccharomyces cerevisiae)
log10 of IC50: 2.44
//
compound: Cc1ccc(S(=O)(=O)N2CCC(c3nnc(SCC(=O)Nc4cc(C)ccc4C)n3C)CC2)cc1 [Compound 12k]
targetOfAssay: α-glucosidase (Saccharomyces cerevisiae)
log10 of IC50: 2.59
//
compound: Cc1ccc(S(=O)(=O)N2CCC(c3nnc(SCC(=O)NC4CCCCC4)n3C)CC2)cc1 [Compound 12a]
targetOfAssay: α-glucosidase (Saccharomyces cerevisiae)
log10 of IC50: 2.13
//
compound: Cc1ccc(S(=O)(=O)N2CCC(c3nnc(SCC(=O)Nc4ccc(C)cc4C)n3C)CC2)cc1 [Compound 12j]
targetOfAssay: α-glucosidase (Saccharomyces cerevisiae)
log10 of IC50: 2.56
//
compound: Cc1ccc(S(=O)(=O)N2CCC(c3nnc(SCC(=O)Nc4ccccc4C)n3C)CC2)cc1 [Compound 12c]
targetOfAssay: α-glucosidase (Saccharomyces cerevisiae)
log10 of IC50: 2.52
//
compound: Cc1ccc(S(=O)(=O)N2CCC(c3nnc(SCC(=O)Nc4cc(C)cc(C)c4)n3C)CC2)cc1 [Compound 12m]
targetOfAssay: α-glucosidase (Saccharomyces cerevisiae)
log10 of IC50: 2.16
//
compound: CCc1cccc(C)c1NC(=O)CSc1nnc(C2CCN(S(=O)(=O)c3ccc(C)cc3)CC2)n1C [Compound 12n]
targetOfAssay: α-glucosidase (Saccharomyces cerevisiae)
log10 of IC50: 1.47

====

// BChE (Homo sapiens, UniProt P06276) pIC50 records
pIC50: −log10 of the molar value.
testReadout: pIC50

molecule: Cc1ccc(NC(=O)CSc2nnc(C3CCN(S(=O)(=O)c4ccc(C)cc4)CC3)n2C)cc1 [Compound 12e]
number: 7.28

molecule: Cc1ccc(S(=O)(=O)N2CCC(c3nnc(SCC(=O)Nc4cc(C)cc(C)c4)n3C)CC2)cc1 [Compound 12m]
number: 7.42

molecule: Cc1ccc(S(=O)(=O)N2CCC(c3nnc(SCC(=O)Nc4ccccc4)n3C)CC2)cc1 [Compound 12b]
number: 3.55

====

Known urease inhibition, inhibition (%) at 0.25 mM of a selection of compounds
# targetOfAssay: UniProt:P07374
# Sequence (P07374 whole entry, looked up): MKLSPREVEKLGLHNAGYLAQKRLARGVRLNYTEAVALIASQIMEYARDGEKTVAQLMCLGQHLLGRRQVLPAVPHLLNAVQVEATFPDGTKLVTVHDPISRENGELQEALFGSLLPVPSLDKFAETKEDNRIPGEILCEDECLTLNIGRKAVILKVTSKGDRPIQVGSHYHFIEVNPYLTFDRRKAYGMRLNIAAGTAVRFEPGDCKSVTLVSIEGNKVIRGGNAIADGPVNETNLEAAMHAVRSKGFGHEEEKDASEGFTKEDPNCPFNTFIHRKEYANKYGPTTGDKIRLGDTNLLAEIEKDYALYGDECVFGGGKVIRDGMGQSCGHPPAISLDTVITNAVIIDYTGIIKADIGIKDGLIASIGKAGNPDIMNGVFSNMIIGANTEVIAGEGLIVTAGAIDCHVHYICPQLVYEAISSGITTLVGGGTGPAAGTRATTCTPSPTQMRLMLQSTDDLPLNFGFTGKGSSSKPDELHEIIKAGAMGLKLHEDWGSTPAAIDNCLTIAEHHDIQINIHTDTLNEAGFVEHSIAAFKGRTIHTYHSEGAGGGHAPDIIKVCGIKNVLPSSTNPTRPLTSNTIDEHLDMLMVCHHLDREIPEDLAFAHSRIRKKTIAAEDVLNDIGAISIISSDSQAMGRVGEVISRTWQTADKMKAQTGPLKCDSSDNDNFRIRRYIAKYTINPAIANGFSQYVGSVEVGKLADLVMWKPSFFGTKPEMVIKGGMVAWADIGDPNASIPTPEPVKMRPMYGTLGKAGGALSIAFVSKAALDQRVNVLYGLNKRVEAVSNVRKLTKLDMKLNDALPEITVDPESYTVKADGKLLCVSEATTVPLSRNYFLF
# testContext: 0.25 mM; mean ± SEM, triplicate
testReadout: urease inhibition, inhibition (%) at 0.25 mM

compound: Cc1ccc(S(=O)(=O)N2CCC(c3nnc(SCC(=O)Nc4ccc(C)cc4C)n3C)CC2)cc1 [Compound 12j]
result: 73.52 ± 1.65%
//
compound: CCOc1ccc(NC(=O)CSc2nnc(C3CCN(S(=O)(=O)c4ccc(C)cc4)CC3)n2C)cc1 [Compound 12h]
result: 42.63 ± 1.52%
//
compound: Cc1ccc(S(=O)(=O)N2CCC(c3nnc(SCC(=O)Nc4ccccc4)n3C)CC2)cc1 [Compound 12b]
result: 31.23 ± 1.42%
//
compound: Cc1ccc(S(=O)(=O)N2CCC(c3nnc(SCC(=O)Nc4cccc(C)c4C)n3C)CC2)cc1 [Compound 12i]
result: 75.82 ± 1.79%
//
compound: Cc1ccc(NC(=O)CSc2nnc(C3CCN(S(=O)(=O)c4ccc(C)cc4)CC3)n2C)cc1 [Compound 12e]
result: 39.26 ± 1.43%
//
compound: Cc1ccc(S(=O)(=O)N2CCC(c3nnc(SCC(=O)Nc4cc(C)ccc4C)n3C)CC2)cc1 [Compound 12k]
result: 76.15 ± 1.52%
//
compound: Cc1ccc(S(=O)(=O)N2CCC(c3nnc(SCC(=O)Nc4c(C)cccc4C)n3C)CC2)cc1 [Compound 12l]
result: 46.19 ± 1.76%
//
compound: Cc1ccc(S(=O)(=O)N2CCC(c3nnc(SCC(=O)Nc4cccc(C)c4)n3C)CC2)cc1 [Compound 12d]
result: 98.22 ± 1.65%
